Cited source: the DeepSol protein solubility set

assaySummary: soluble on expression in E. coli; label from the status in PepcDB or PDB records
measuredEndpoint: soluble on expression in E. coli

Return reported soluble on expression in E. coli. Input sequence: GPGSMSERDKQRRSLERERMATVIFSYISHLMRTHEEETTVADEFIPSTKFFRTETLPNISLIHYVRRVVEHMNCSPEAYIFALAYIRRLFVAGFPLHTHSIYRLLLTAVVVATRVRDDFLFSKKYYSKVGGVTACDLNMMEIHFLADLLEYRVEVSPDEYRVLCNEITALLSSEVSKFDGNSSNPNNDTAAEGVASIQEPVGNSKPRWMSECCLYW
not soluble

Return reported soluble on expression in E. coli. Input sequence: MLPERVLEILREMKRERIKGASWLAKKGAEAFLTLAEELDESLLEDAIMELREEVVKVNPSMASLYNLARFIPVTNRRDILKSRALEFLRRMEEAKRELASIGAQLIDDGDVIITHSFSSTVLEIIRTAKERKKRFKVILTESSPDYEGLHLARELEFSGIEFEVITDAQMGLFCREASIAIVGADMITKDGYVVNKAGTYLLALACHENAIPFYVAAETYKFHPTLKSGDVMLMERDLIRGNVRIRNVLFDVTPWKYVRGIITELGIVIPPRDIQLEHHHHHH
not soluble

Return reported soluble on expression in E. coli. Input sequence: MLLRFIIGLSSVLLVTGLFNPLLPTLGDYLLTDQQVQKYFSVAGPSNLAIGTCNSVPFASAQAGFASSVGLAPTTTWREANILTNATIGMIDQGMDQLAAVCQARQQFVQTLGAAYDTCTDRFYLISLGNTDWWNVMQYTHLMKHLEFICSTGFDVYQSNIDCIRKGETTDGNQYRACFYKFNATVNANPNNFCGATETFIGCIKDFFDTECNLYVGWMQCELERIGFAYDCYGLSC
not soluble
